System: Rattus norvegicus
protocol: Antiinflammatory activity against carrageenan-induced paw edema in Charles Foster albino rat at 50 mg/kg, po administered 30 mins before carrageenan challenge measured after 1 to 3 hrs
Format: functional
measuredEndpoint: Activity (%)
Response body: numeric value in %, unit text excluded.

Some solved cases for reference:
COc1ccccc1-n1c(-c2ccccc2)cs/c1=N\C(=N)c1ccccn1	23
N=C(/N=c1\scc(-c2ccccc2)n1-c1ccccc1[N+](=O)[O-])c1ccccn1	49
N=C(/N=c1\scc(-c2ccccc2)n1-c1ccc(Cl)cc1)c1ccccn1	17
O=C(CC1NC(=O)NC1=O)/N=c1\scc(-c2ccccc2)n1-c1ccc([N+](=O)[O-])cc1 (centres undefined)	34
O=C(/N=c1\scc(-c2ccccc2)n1-c1ccc(Cl)cc1)c1cc(=O)[nH]c(=O)[nH]1	2

Read the next record carefully.
Which Activity reading was recorded for the compound `COc1ccc(-c2cs/c(=N\C(=O)c3cc(=O)[nH]c(=O)[nH]3)n2-c2ccc([N+](=O)[O-])cc2)cc1` ?
15
